Assay: Test of storage stability in solution
Format: physicochemical
Details: 13 mg in 1 mL TFP, brown bottle, 25° C., 3 days; 1250-fold diluted for measurement
Provide the recorded Δλmax(c) (change in absorption maximum wavelength) for the entries that follow.
Express it in nm; write the number only.

Q: Look up Δλmax(c) (change in absorption maximum wavelength) for this compound: Cc1c(/C=N/[N-]c2nnnn2-c2ccccc2)c([O-])n(CC(C)C)c(=O)c1C#N.Cc1c(/C=N/[N-]c2nnnn2-c2ccccc2)c([O-])n(CC(C)C)c(=O)c1C#N.Cc1c(/C=N/[N-]c2nnnn2-c2ccccc2)c([O-])n(CC(C)C)c(=O)c1C#N.Cc1c(/C=N/[N-]c2nnnn2-c2ccccc2)c([O-])n(CC(C)C)c(=O)c1C#N.[Co+3].[Co+3].c1ccc2c[n+](CCCCCCCCCC[n+]3ccc4ccccc4c3)ccc2c1
Ans: 0

Q: Sample Cc1c(/C=N/[N-]c2nnnn2-c2ccccc2)c([O-])n(CC(C)C)c(=O)c1C#N.Cc1c(/C=N/[N-]c2nnnn2-c2ccccc2)c([O-])n(CC(C)C)c(=O)c1C#N.Cc1c(/C=N/[N-]c2nnnn2-c2ccccc2)c([O-])n(CC(C)C)c(=O)c1C#N.Cc1c(/C=N/[N-]c2nnnn2-c2ccccc2)c([O-])n(CC(C)C)c(=O)c1C#N.[Co+3].[Co+3].c1ccc2c(c1)ccc[n+]2CCCC[n+]1cccc2ccccc21 — what was its Δλmax(c) (change in absorption maximum wavelength)?
Ans: 0.5

Q: Could you share which Δλmax(c) (change in absorption maximum wavelength) value was measured for Cc1c(/C=N/[N-]c2nnnn2-c2ccccc2)c([O-])n(CC(C)C)c(=O)c1C#N.Cc1c(/C=N/[N-]c2nnnn2-c2ccccc2)c([O-])n(CC(C)C)c(=O)c1C#N.Cc1c(/C=N/[N-]c2nnnn2-c2ccccc2)c([O-])n(CC(C)C)c(=O)c1C#N.Cc1c(/C=N/[N-]c2nnnn2-c2ccccc2)c([O-])n(CC(C)C)c(=O)c1C#N.[Co+3].[Co+3].c1cc[n+]2c(c1)-c1cccc[n+]1CCC2 ?
Ans: 0

====

Test: Test of storage stability in solution
Type: physicochemical
Details: 13 mg in 1 mL TFP, brown bottle, 25° C., 3 days; 1250-fold diluted for measurement
Exercise: state measured I^c/I^c0 (absorbance ratio at absorption maximum after/before storage stability test) for each of the compounds provided.
Give the figure only, with no unit attached.

Q: # lookup: I^c/I^c0 (absorbance ratio at absorption maximum after/before storage stability test) of Cc1c(/C=N/[N-]c2nnnn2-c2ccccc2)c([O-])n(CC(C)C)c(=O)c1C#N.Cc1c(/C=N/[N-]c2nnnn2-c2ccccc2)c([O-])n(CC(C)C)c(=O)c1C#N.Cc1c(/C=N/[N-]c2nnnn2-c2ccccc2)c([O-])n(CC(C)C)c(=O)c1C#N.Cc1c(/C=N/[N-]c2nnnn2-c2ccccc2)c([O-])n(CC(C)C)c(=O)c1C#N.FC(F)(F)c1cccc(-[n+]2ccc(-c3cc[n+](-c4cccc(C(F)(F)F)c4)cc3)cc2)c1.[Co+3].[Co+3] [Complex Compound (19)]
Ans: 0.99

Q: So what's the measured I^c/I^c0 (absorbance ratio at absorption maximum after/before storage stability test) for this one? Cc1c(/C=N/[N-]c2nc3ccccc3o2)c([O-])n(Cc2ccccc2)c(=O)c1C#N.Cc1c(/C=N/[N-]c2nc3ccccc3o2)c([O-])n(Cc2ccccc2)c(=O)c1C#N.Cc1c(/C=N/[N-]c2nc3ccccc3o2)c([O-])n(Cc2ccccc2)c(=O)c1C#N.Cc1c(/C=N/[N-]c2nc3ccccc3o2)c([O-])n(Cc2ccccc2)c(=O)c1C#N.[Co+3].[Co+3].c1cc[n+]2c(c1)-c1cccc[n+]1CCC2 [Complex Compound (33)]
Ans: 1.01

Q: // I^c/I^c0 (absorbance ratio at absorption maximum after/before storage stability test) lookup, key: Cc1c(/C=N/[N-]c2nnnn2-c2ccccc2)c([O-])n(Cc2ccccc2)c(=O)c1C#N.Cc1c(/C=N/[N-]c2nnnn2-c2ccccc2)c([O-])n(Cc2ccccc2)c(=O)c1C#N.Cc1c(/C=N/[N-]c2nnnn2-c2ccccc2)c([O-])n(Cc2ccccc2)c(=O)c1C#N.Cc1c(/C=N/[N-]c2nnnn2-c2ccccc2)c([O-])n(Cc2ccccc2)c(=O)c1C#N.[Co+3].[Co+3].c1ccc(CC[N+]23CC[N+](CCc4ccccc4)(CC2)CC3)cc1 [Complex Compound (31)]
Ans: 1.02

Q: Return reported I^c/I^c0 (absorbance ratio at absorption maximum after/before storage stability test); argument: CCn1c([O-])c(/C=N/[N-]C(=O)c2ccc(C(F)(F)F)cc2)c(C)c(C#N)c1=O.CCn1c([O-])c(/C=N/[N-]C(=O)c2ccc(C(F)(F)F)cc2)c(C)c(C#N)c1=O.CCn1c([O-])c(/C=N/[N-]C(=O)c2ccc(C(F)(F)F)cc2)c(C)c(C#N)c1=O.CCn1c([O-])c(/C=N/[N-]C(=O)c2ccc(C(F)(F)F)cc2)c(C)c(C#N)c1=O.Oc1ccc(-c2ccccc2)cc1-[n+]1ccc(-c2cc[n+](-c3cc(-c4ccccc4)ccc3O)cc2)cc1.[Co+3].[Co+3] [Complex Compound (9)]
Ans: 1.00

Q: What value of I^c/I^c0 (absorbance ratio at absorption maximum after/before storage stability test) has been reported for the following compound? CCCCn1c([O-])c(/C=N/[N-]c2nnnn2-c2ccccc2)c(C)c(C#N)c1=O.CCCCn1c([O-])c(/C=N/[N-]c2nnnn2-c2ccccc2)c(C)c(C#N)c1=O.CCCCn1c([O-])c(/C=N/[N-]c2nnnn2-c2ccccc2)c(C)c(C#N)c1=O.CCCCn1c([O-])c(/C=N/[N-]c2nnnn2-c2ccccc2)c(C)c(C#N)c1=O.Fc1cccc(-[n+]2ccc(-c3cc[n+](-c4cccc(F)c4)cc3)cc2)c1.[Co+3].[Co+3] [Complex Compound (2)]
Ans: 1.00

Ref: patent US20130123494A1
